- Test system: 743489-274-T-PDC complex spheroid growth
- TEST_DETAILS: Anticancer human tumor 743489-274-T-PDC patient-derived renal cell carcinoma cell line growth inhibition [AhR]
- TEST_PARAMETERS: second compound 0.316 µM; first compound 0.949 µM; hits give low values
READOUT_TYPE: viability, T/C (%)
# value in %; strip the unit string

Query: Which measured viability, T/C value corresponds to CCN(c1cc(-c2ccc(CN3CCOCC3)cc2)cc(C(=O)NCc2c(C)cc(C)[nH]c2=O)c1C)C1CCOCC1 + Cc1ccccc1N=Nc1ccc(NC(=O)c2ccnn2C)c(C)c1 ?
Response: 86.6

Query: Now consider CCN(c1cc(-c2ccc(CN3CCOCC3)cc2)cc(C(=O)NCc2c(C)cc(C)[nH]c2=O)c1C)C1CCOCC1 + Cc1cncc(-c2nc(NCCc3c[nH]c4ccccc34)c3ncn(C(C)C)c3n2)c1 .
Response: 85.9

Query: Now consider O=C(C=Cn1cnc(-c2cc(C(F)(F)F)cc(C(F)(F)F)c2)n1)NNc1cnccn1 + Cc1cncc(-c2nc(NCCc3c[nH]c4ccccc34)c3ncn(C(C)C)c3n2)c1 .
Response: 106

---

- Test system: 743489-274-T-PDC complex spheroid growth
- TEST_DETAILS: Anticancer human tumor 743489-274-T-PDC cell line growth inhibition [AhR]
- TEST_PARAMETERS: second compound 3.16 µM; first compound 3.16 µM; hits give low values
READOUT_TYPE: viability, T/C (%)
# value in %; strip the unit string

Query: Which measured viability, T/C value corresponds to COc1cccc2c1C(=O)c1c(O)c3c(c(O)c1C2=O)CC(O)(C(=O)CO)CC3OC1CC(N)C(O)C(C)O1 (centres undefined) + CC(CO)NC(=O)c1cc(-c2ccc(Cl)cc2)nn(-c2cnn(C)c2)c1=O ?
Response: 88.2

Query: Now consider COc1cccc2c1C(=O)c1c(O)c3c(c(O)c1C2=O)CC(O)(C(=O)CO)CC3OC1CC(N)C(O)C(C)O1 (centres undefined) + Cc1cncc(-c2nc(NCCc3c[nH]c4ccccc34)c3ncn(C(C)C)c3n2)c1 .
Response: 0.25

Query: Now consider CC1COCCN1c1cc(C2(S(C)(=N)=O)CC2)nc(-c2ccnc3[nH]ccc23)n1 (centres undefined) + Cc1ccccc1N=Nc1ccc(NC(=O)c2ccnn2C)c(C)c1 .
Response: 83.2

Query: Now consider COc1cc(C2c3cc4c(cc3C(OC3OC5COC(C)OC5C(O)C3O)C3COC(=O)C23)OCO4)cc(OC)c1O (centres undefined) + Cc1cncc(-c2nc(NCCc3c[nH]c4ccccc34)c3ncn(C(C)C)c3n2)c1 .
Response: 80.1

---

- Tested on: 743489-274-T-PDC complex spheroid growth
- TEST_DETAILS: Anticancer human tumor 743489-274-T-PDC cell line growth inhibition [AhR];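 also: spheroids exposed to agents for 7 days before readout; 100% = DMSO vehicle control wells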
- TEST_PARAMETERS: second compound 1 µM; first compound 0.316 µM; hits give low values
Consider the following molecules; for each one, report its viability, T/C.
# value in %; strip the unit string

Query: Give recorded viability, T/C with 743489-274-T-PDC complex spheroid growth for the following molecule: CC1(C)CCC(CN2CCN(c3ccc(C(=O)NS(=O)(=O)c4ccc(NCC5CCOCC5)c([N+](=O)[O-])c4)c(Oc4cnc5[nH]ccc5c4)c3)CC2)=C(c2ccc(Cl)cc2)C1 + Cc1cncc(-c2nc(NCCc3c[nH]c4ccccc34)c3ncn(C(C)C)c3n2)c1
Response: 103

Query: Now consider O=C(c1cc(Cc2n[nH]c(=O)c3ccccc23)ccc1F)N1CCN(C(=O)C2CC2)CC1 + Cc1ccccc1N=Nc1ccc(NC(=O)c2ccnn2C)c(C)c1 .
Response: 111

Query: Now consider COc1cc(Nc2ncc3c(n2)-c2ccc(Cl)cc2C(c2c(F)cccc2OC)=NC3)ccc1C(=O)O + Cc1ccccc1N=Nc1ccc(NC(=O)c2ccnn2C)c(C)c1 .
Response: 75.5

Query: Now consider NS(=O)(=O)OCC1CC(n2ccc3c(NC4CCc5ccccc54)ncnc32)CC1O (stereo unspecified) + Cc1ccccc1N=Nc1ccc(NC(=O)c2ccnn2C)c(C)c1 .
Response: 102

Query: Now consider O=C(c1cc(Cc2n[nH]c(=O)c3ccccc23)ccc1F)N1CCN(C(=O)C2CC2)CC1 + CC(CO)NC(=O)c1cc(-c2ccc(Cl)cc2)nn(-c2cnn(C)c2)c1=O .
Response: 100

Query: Now consider Nc1ncn(C2CC(O)C(CO)O2)c(=O)n1 (stereo unspecified) + Cc1cncc(-c2nc(NCCc3c[nH]c4ccccc34)c3ncn(C(C)C)c3n2)c1 .
Response: 106

---

- System: 743489-274-T-PDC complex spheroid growth
- TEST_DETAILS: Anticancer human tumor 743489-274-T-PDC cell line growth inhibition [AhR];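 also: spheroids exposed to agents for 7 days before readout; 100% = DMSO vehicle control wells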
- TEST_PARAMETERS: second compound 1 µM; first compound 10 µM; hits give low values
READOUT_TYPE: viability, T/C (%)
# value in %; strip the unit string

Query: Which measured viability, T/C value corresponds to CC(C)c1c(-c2ccccc2)nc2c(C#N)c[nH]n2c1=O + Cc1cncc(-c2nc(NCCc3c[nH]c4ccccc34)c3ncn(C(C)C)c3n2)c1 ?
Response: 102

Query: Now consider NS(=O)(=O)OCC1CC(n2ccc3c(NC4CCc5ccccc54)ncnc32)CC1O (stereo not drawn) + Cc1cncc(-c2nc(NCCc3c[nH]c4ccccc34)c3ncn(C(C)C)c3n2)c1 .
Response: 134

Query: Now consider COc1cc(Nc2ncc3c(n2)-c2ccc(Cl)cc2C(c2c(F)cccc2OC)=NC3)ccc1C(=O)O + Cc1ccccc1N=Nc1ccc(NC(=O)c2ccnn2C)c(C)c1 .
Response: 81.5

---

- Test system: 743489-274-T-PDC complex spheroid growth
- TEST_DETAILS: Anticancer human tumor 743489-274-T-PDC cell line growth inhibition [AhR];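 also: spheroids exposed to agents for 7 days before readout; 100% = DMSO vehicle control wells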
- TEST_PARAMETERS: second compound 0.316 µM; first compound 0.0316 µM; hits give low values
Decision: viability, T/C beneath 90% gives Y; viability, T/C meeting or exceeding 90% gives N.

Query: Check if viability, T/C falls below 90% for COc1cc(C2c3cc4c(cc3C(OC3OC5COC(C)OC5C(O)C3O)C3COC(=O)C23)OCO4)cc(OC)c1O (stereo unspecified) + Cc1cncc(-c2nc(NCCc3c[nH]c4ccccc34)c3ncn(C(C)C)c3n2)c1 .
Response: N

Query: Now consider CC(C)c1c(-c2ccccc2)nc2c(C#N)c[nH]n2c1=O + Cc1ccccc1N=Nc1ccc(NC(=O)c2ccnn2C)c(C)c1 .
Response: N

Query: Now consider Cn1ncnc1C1c2n[nH]c(=O)c3cc(F)cc(c23)NC1c1ccc(F)cc1 (stereo unspecified) + Cc1cncc(-c2nc(NCCc3c[nH]c4ccccc34)c3ncn(C(C)C)c3n2)c1 .
Response: N

Query: Now consider CC[C@@]1(O)C(=O)OCc2c1cc1n(c2=O)Cc2cc3c(CN(C)C)c(O)ccc3nc2-1 + CC(CO)NC(=O)c1cc(-c2ccc(Cl)cc2)nn(-c2cnn(C)c2)c1=O .
Response: Y

Query: Now consider O=C(C=Cc1cccc(S(=O)(=O)Nc2ccccc2)c1)NO + Cc1ccccc1N=Nc1ccc(NC(=O)c2ccnn2C)c(C)c1 .
Response: Y

---

- System: 743489-274-T-PDC complex spheroid growth
- TEST_DETAILS: Anticancer human tumor 743489-274-T-PDC cell line growth inhibition [AhR];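 also: spheroids exposed to agents for 7 days before readout; 100% = DMSO vehicle control wells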
- TEST_PARAMETERS: second compound 0.316 µM; first compound 0.3 µM; hits give low values
Consider the following molecules; for each one, report its viability, T/C.
# value in %; strip the unit string

Query: Which measured viability, T/C value corresponds to Nc1ncn(C2CC(O)C(CO)S2)c(=O)n1 (stereo unspecified) + Cc1cncc(-c2nc(NCCc3c[nH]c4ccccc34)c3ncn(C(C)C)c3n2)c1 ?
Response: 101

Query: Now consider O=C(C=Cn1cnc(-c2cc(C(F)(F)F)cc(C(F)(F)F)c2)n1)NNc1cnccn1 + Cc1ccccc1N=Nc1ccc(NC(=O)c2ccnn2C)c(C)c1 .
Response: 133

Query: Now consider CC(C)CC(NC(=O)C(Cc1ccccc1)NC(=O)c1cnccn1)B(O)O (stereo unspecified) + Cc1cncc(-c2nc(NCCc3c[nH]c4ccccc34)c3ncn(C(C)C)c3n2)c1 .
Response: 10.7

Query: Now consider O=C(C=Cn1cnc(-c2cc(C(F)(F)F)cc(C(F)(F)F)c2)n1)NNc1cnccn1 + Cc1cncc(-c2nc(NCCc3c[nH]c4ccccc34)c3ncn(C(C)C)c3n2)c1 .
Response: 107

Query: Now consider CCN(c1cc(-c2ccc(CN3CCOCC3)cc2)cc(C(=O)NCc2c(C)cc(C)[nH]c2=O)c1C)C1CCOCC1 + Cc1ccccc1N=Nc1ccc(NC(=O)c2ccnn2C)c(C)c1 .
Response: 77.3

Query: Now consider Nc1ncn(C2CC(O)C(CO)S2)c(=O)n1 (stereo unspecified) + CC(CO)NC(=O)c1cc(-c2ccc(Cl)cc2)nn(-c2cnn(C)c2)c1=O .
Response: 95.1
